- target-entity: T1, 10E8-GT10.2 epitope scaffold (designed scaffold 10E8-GT10.2 with …, N-linked glycosylation sites added (positions not given))
- T1 chain: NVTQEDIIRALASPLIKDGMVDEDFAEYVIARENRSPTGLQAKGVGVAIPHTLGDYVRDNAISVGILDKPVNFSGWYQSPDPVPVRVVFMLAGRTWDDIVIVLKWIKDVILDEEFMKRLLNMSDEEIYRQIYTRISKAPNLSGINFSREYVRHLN
pKd: −log10 of the molar value.
Please enter rule met where pKd is greater than or equal to 8, and rule not met where it is lower.

NHP-10E8_MPER-GT10v55_W21-14 (antibody, V domains shown) VH: QVQLQESGPGLVKPSETLSLTCAVSGGSISSGYYYWSWIRQPPGKGLEWIGYITYSGSTSYNPSLKSRVTISRDTSKNQFSLKLSSVTAADTAVYYCASAPSYYNFWSGYYHLDYFDYWGQGVLVTVSS VL: QSVLTQPPSVSGAPGQRVTISCTGSSSNIGGYYVSWYQQLPGTTPKLLIYQDNKRPSGVSDRFSGSKSGTSASLTITGLQTEDEADYYCLSYDSSLSAHGLFGGGTRLTV :: rule not met

Q: Given the entry NHP-10E8_MPER-GT10v55_W21-09 (antibody, V domains shown) VH: EVRLVESGGGLVQPGGSLRLSCAASGFTFSDYYMSWVRQAPGKGPEWVGFIRNKANGGTAEYAASVKGRFTISRDDSKSIASLQMNSLKTEDTAVYYCARESPYYNFWSGYYGTNDAFDFWGQGLRVTVSS VL: QPVLTQSPSASASLGASVKLTCTLSSGHSSYAIAWHQQQQGKAPRYLMRLNSVGSHSKGDGIPDRFSGSSSGAERYLTISNLQSEDEADYYCQTWTTGIQVFGGGTRLTV , answer whether its pKd meets or surpasses 8.
Result: rule not met

Q: Given the entry NHP-Comp_MPER-GT10v55_W26-10 (antibody, V domains shown) VH: EVQLVESGGGLAKPGGSLRLSCVASGFRFSNYWMNWVRQTPGKGLEWISVINSGGVITYYADSVKGRFTISRDNSKNTLSLQMNSLRTEDTAVYYCARQSLDWGLDSWGQGVVVTVSS VL: SSELTQDPAVSVALGQTVRITCQGDSLRNHYASWYQQKPGQAPVLVVYGNNNRPSGIPERFSGSRSGNTASLTITGAQVEDEADYYCDSWDSSGTHRVFGGGTRLTV , answer whether its pKd meets or surpasses 8.
Result: rule not met

Q: Given the entry NHP-10E8_MPER-GT10v55_W21-11 (antibody, V domains shown) VH: EVRLVESGGGLVQPGGSLRLSCAASGFTFSDYYMSWVRQAPGKGPEWVGFIRNKANGGTAEYAASVKGRFTISRDDSKSIASLQMNSLKTEDTAVYYCARDRGNYNFWSGYSGSDYFDYWGQGVLVTVSS VL: QSVLTQPPSVSAAPGQKVTISCSGSSSNIGRSYVSWYQQVPGTAPKLLIYDNNKRPSGVSDRFSGSKSGTSASLAITGLQTGDEADYYCGAWDSSLSAGLFGGGTRLTV , answer whether its pKd meets or surpasses 8.
Result: rule not met

Q: Given the entry NHP-10E8_MPER-GT10v55_W21-19 (antibody, V domains shown) VH: QVQLQESGPGLLKPSDTLSLICAVSGGSISGGYGWGWIRQPPGKGLEWIGSIYSSNGNTYYNPSLKSRVTISTDTSKNQFSLKLNSVTAADTAVYYCGSGGLSYSFWSGYQSLHRLHVWGPGVLVTVSS VL: DIVMTQTPLSLPVTPGEPASISCRSSQSLLDSEDGNTYLDWYLQKPGQSPQLLIYEVSKRASGVPDRFSGSGSDTDFTLKISRVEAEDVGVYYCMQGLEFPFTFGPGTKLDIK , answer whether its pKd meets or surpasses 8.
Result: rule met

Q: Given the entry NHP-10E8_MPER-GT10v55_W26-03 (antibody, V domains shown) VH: QVQLQESGPGVVKPSETLSLTCAVSGGSISDNYWWTWIRQPPGKGLEWIGYIYGSNTSTNYNPSLKSRVTISKDTSKNQFSLKLSSVTAADTAVYYCARDREFYNFWSGYYGAYGLDSWGQGVVVTVSS VL: QPVLTQPTSLSASPGASARLSCTLSSGINVGSYSIYWYQQKPGSPPRYLLYYDSDSNKHQGSGVPSRFSGSNDASANAGLLLISGLQSEDEADYYCAIWHSSTYYIFGGGTRLTV , answer whether its pKd meets or surpasses 8.
Result: rule met

Q: Given the entry NHP-10E8_MPER-GT10v55_W21-10 (antibody, V domains shown) VH: EVRLVESGGDLVQPGGSLRLSCAASGFTFSYYSMSWVRQAPGKGLEWIGFIKNKADGGTEAYAESVKGRFTISRDDSENTLYLQMNSLKTDDTAVYSCTRGRVYYNFWSGFYTGGRFDVWGPGVLVTVSS VL: DIVMTQTPLSLPVTPGEPASISCRSSQSLLDSEDGNTYLDWYLQKPGQSPQLLIYEVSNRASGVPDRFSGSGSDTDFTLKISRLEAEDVGVYYCMQGLEFPFTFGPGTKLDIK , answer whether its pKd meets or surpasses 8.
Result: rule met

Q: Given the entry NHP-10E8_MPER-GT10v55_W21-04 (antibody, V domains shown) VH: EVQLVESGGGLVQPGGSLRLSCVASGFTFSDYGFDWVRQAPGKGLEWVGFIRSKDYGGSTEYAASVKGRFTISRDDSKNTAYLQMTSLKAEDTAVYFCTRDLGFYNFWTGYYEVNRFDVWGAGVLVTVSS VL: QPVLTQPTSLSASPGASARLTCTLRSGISVGSYRIFWYQQKPGSPPRYLLNYHTDSDNHQGSGVPSRFSGSKDASANAGILLISGLQSDDEADYYCMIWHNNACFFGGGTRLTV , answer whether its pKd meets or surpasses 8.
Result: rule met

Reference source for all entries: paper PMC11147780
